# TESTED TARGET: AKT1 E17K (Homo sapiens, UniProt P31749, E17K)
# Sequence (P31749 whole entry E17K): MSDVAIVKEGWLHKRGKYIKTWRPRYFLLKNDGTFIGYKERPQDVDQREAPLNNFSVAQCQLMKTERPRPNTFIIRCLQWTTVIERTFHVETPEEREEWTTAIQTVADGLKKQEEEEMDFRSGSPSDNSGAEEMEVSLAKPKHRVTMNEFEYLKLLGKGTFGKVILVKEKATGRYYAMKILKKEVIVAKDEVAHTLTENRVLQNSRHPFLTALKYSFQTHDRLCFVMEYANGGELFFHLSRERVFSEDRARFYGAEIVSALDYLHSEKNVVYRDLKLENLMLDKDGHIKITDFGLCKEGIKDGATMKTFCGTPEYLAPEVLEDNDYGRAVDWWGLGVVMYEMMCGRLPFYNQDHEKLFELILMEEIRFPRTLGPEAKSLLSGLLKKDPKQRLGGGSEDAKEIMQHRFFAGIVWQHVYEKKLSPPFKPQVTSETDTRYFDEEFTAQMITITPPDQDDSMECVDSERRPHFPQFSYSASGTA
# METHOD: Live cell AKT1 E17K target engagement by NanoBRET competitive probe displacement
# ASSAY CONTEXT: HEK293 cells transfected with kinase-NanoLuciferase fusion, 2 h at 37° C.
ENDPOINT: pIC50
Convention used: pIC50 is expressed as -log10 of the molar concentration.

Examples with their reported pIC50 follow.
[
  {
    "COMPOUND": "C=CC(=O)N1CCC(N[C@@H]2c3ccc(-n4c(-c5cccnc5N)nc5ccc(-n6ccc(C#N)n6)nc54)cc3CC2F)CC1 (single isomer, unassigned) [Example 312]",
    "pIC50": 7.94
  },
  {
    "COMPOUND": "C=CC(=O)N1CCC(N[C@H]2CCc3cc(-n4c(-c5cccnc5N)nc5ccc(-n6cccn6)nc54)ccc32)C1 (single isomer, unassigned) [Example 57]",
    "pIC50": 7.66
  }
]

What reported pIC50 corresponds to C=CC(=O)N1CCC(N[C@H]2CCc3cc(-n4c(-c5cccnc5N)nc5ccc(-c6nnc(C)s6)nc54)ccc32)CC1 on AKT1 E17K (Homo sapiens, UniProt P31749, E17K)?
7.86
